What pIC50 was measured for each of the following?
System Tested: unphosphorylated PDGFRβ kinase (uPDGFRβ, Seq. ID No. 3) (Homo sapiens)
Sequence (P09619 557-1106): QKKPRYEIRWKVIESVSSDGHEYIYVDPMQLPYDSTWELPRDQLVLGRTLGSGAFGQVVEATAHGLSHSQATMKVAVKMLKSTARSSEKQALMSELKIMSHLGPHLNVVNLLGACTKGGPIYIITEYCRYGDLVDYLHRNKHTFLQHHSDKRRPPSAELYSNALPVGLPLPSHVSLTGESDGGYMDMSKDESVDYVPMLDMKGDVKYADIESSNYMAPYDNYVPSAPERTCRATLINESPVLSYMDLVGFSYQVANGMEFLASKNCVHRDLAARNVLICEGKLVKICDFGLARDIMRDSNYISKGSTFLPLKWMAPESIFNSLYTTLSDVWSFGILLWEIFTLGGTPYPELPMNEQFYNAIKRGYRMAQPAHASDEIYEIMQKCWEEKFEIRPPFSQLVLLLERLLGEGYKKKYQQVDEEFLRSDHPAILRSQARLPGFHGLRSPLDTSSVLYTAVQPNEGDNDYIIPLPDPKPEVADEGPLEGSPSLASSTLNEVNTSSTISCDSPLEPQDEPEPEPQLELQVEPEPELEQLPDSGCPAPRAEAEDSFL
Procedure Summary: biochemical
Study Conditions: uPDGFRb, enzymatic assay, ATP 500 μM
pIC50: −log10 of the molar value.

Task: Which pIC50 reading was recorded for the compound Cn1cc(-c2cc(Oc3ccc(NC(=O)NC(=O)CCC4(C(F)(F)F)CC4)nc3)ccn2)cn1 ?
Result: > 8.00

Task: Recorded pIC50 of Cc1cn(-c2cc(Oc3ccc(NC(=O)NC(=O)[C@@H]4C[C@H]5CC[C@@H]4O5)nc3C)ccn2)cn1 (relative stereo) , please.
Result: < 6.00

Task: What value of pIC50 has been recorded for this entry: COC(C)(C)C(=O)NC(=O)Nc1ccc(Oc2ccnc(-c3ccc(C#N)nc3)c2)c(C)n1
Result: < 6.00

Task: What value of pIC50 has been recorded for this entry: Cc1nc(NC(=O)NC(=O)C2(C)CCC2)ccc1Oc1ccnc(-c2cnn(C)c2)c1
Result: 6.00 to 7.00

Task: Can you share its pIC50? I mean this compound: Cn1cc(-c2cc(Oc3ccc(NC(=O)NC(=O)C4CC(C)(C)C4)nc3)ncn2)cn1
Result: 7.00 to 8.00

Task: What does the data say about its pIC50? Entry: COC1(C(=O)NC(=O)Nc2ccc(Oc3ccnc(-c4cnc(C)s4)c3)cn2)CCCC1
Result: 6.00 to 7.00

Task: State the recorded pIC50 for this entry: CC(C)(C)C(=O)NC(=O)Nc1ccc(Oc2ccnc(-c3ccnc(C(F)(F)F)c3)c2)cn1
Result: < 6.00

Task: Give the measured pIC50 of CN1CCN(CC(=O)NC(=O)Nc2ccc(Oc3ccnc(-c4cnn(C)c4)c3)cn2)CC1 .
Result: < 6.00

Task: # get_value(readout='pIC50', item= COC1(C(=O)NC(=O)Nc2ccc(Oc3ccnc(-c4ccnc(C)c4)c3)cn2)CCCC1 )
Result: 6.00 to 7.00

Task: I'd like to know its pIC50. The compound in question is Cn1cc(-c2cc(Oc3ccc(NC(=O)NC(=O)C4(C#N)CC4)nc3)ccn2)cn1
Result: < 6.00

Task: # query: pIC50 of entry Cc1ncc(-c2cc(Oc3ccc(NC(=O)NC(=O)C4CCOCC4)nc3)ccn2)s1
Result: < 6.00

Task: # query: pIC50 of entry COC(C)(C)C(=O)NC(=O)Nc1ccc(Oc2ccnc(-c3cnc(C(C)C)[nH]3)c2)cn1
Result: < 6.00

Task: Look at this compound and give its reported pIC50. Cn1cc(-c2cc(Oc3ccc(NC(=O)NC(=O)C4CCCCC4)nc3)ccn2)cn1
Result: 7.00 to 8.00

Task: pIC50 for CC(C)(C)C(=O)NC(=O)Nc1ccc(Oc2ccnc(-c3cnco3)c2)cn1 ?
Result: < 6.00

Task: For the compound COC(C)(C)C(=O)NC(=O)Nc1ccc(Oc2ccnc(-n3cnc(C)c3)c2)cn1 , what pIC50 is on record?
Result: < 6.00

Task: Given the entry Cn1cc(-c2cc(Oc3ccc(NC(=O)NC(=O)C4CC4)nc3)ccn2)cn1 , report its measured pIC50.
Result: < 6.00
